Values from ChEMBL document CHEMBL1143049

Test system: K562
run.description: Antitumor activity against human K562 cells after 72 hrs by Calcein AM assay
Assay type: functional, cell-based
experimental.context: K562, 72 h
Threshold-based label: IC50 under 20 µM gives rule met, IC50 not under 20 µM gives rule not met.

Some solved entries appear below for comparison.
> print(dat)
                                   molecule         class
1  Cc1cccc(CNc2ncnc3c2ncn3[C@@H]2O[C@H](CO)[C@@H](O)[C@H]2O)c1  rule not met
2  OC[C@H]1O[C@@H](n2cnc3c(NCc4ccc(Br)cc4)ncnc32)[C@H](O)[C@@H]1O  rule not met
3  OC[C@H]1O[C@@H](n2cnc3c(NCc4ccccc4OC(F)(F)F)ncnc32)[C@H](O)[C@@H]1O  rule not met

stdin: Would you kindly verify if IC50 of "COc1ccc(CNc2ncnc3c2ncn3[C@@H]2O[C@H](CO)[C@@H](O)[C@H]2O)cc1" is strictly less than 20 µM?
stdout: rule not met

stdin: Would you kindly verify if IC50 of "OC[C@H]1O[C@@H](n2cnc3c(NCc4ccc(Cl)cc4Cl)ncnc32)[C@H](O)[C@@H]1O" is strictly less than 20 µM?
stdout: rule not met

stdin: Would you kindly verify if IC50 of "OC[C@H]1O[C@@H](n2cnc3c(NCc4cccc(O)c4O)ncnc32)[C@H](O)[C@@H]1O" is strictly less than 20 µM?
stdout: rule not met

stdin: Would you kindly verify if IC50 of "OC[C@H]1O[C@@H](n2cnc3c(NCc4cccc(F)c4)ncnc32)[C@H](O)[C@@H]1O" is strictly less than 20 µM?
stdout: rule met

stdin: Would you kindly verify if IC50 of "COc1cc(O)cc(OC)c1CNc1ncnc2c1ncn2[C@@H]1O[C@H](CO)[C@@H](O)[C@H]1O" is strictly less than 20 µM?
stdout: rule not met
